# reported-conditions: in n-butanol, 308.15 K
recorded-metric: solubility (mole fraction)
Please give only the number in your answer, with no unit.

# query: solubility (mole fraction) of entry CC(C)[C@H](N)C(=O)O
0.000115

---

# reported-conditions: in methanol, 318.15 K
recorded-metric: solubility (mole fraction)
Please give only the number in your answer, with no unit.

# query: solubility (mole fraction) of entry CC(C)[C@H](N)C(=O)O
0.000792

---

# reported-conditions: in ethyl acetate, 303.15 K
recorded-metric: solubility (mole fraction)
Please give only the number in your answer, with no unit.

# query: solubility (mole fraction) of entry CC(C)[C@H](N)C(=O)O
7.1e-05
